# reported composite z-score; entries follow
Assay: small-molecule microarray binders of probe aDKK1, primary screen, biochemical, biotinylated probe, 635/667 nm fluorescence (AID 1099);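 note: score merges 667nm spot fluorescence with signal to noise across triplicate slides; reference of the scale not given here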
Conditions: higher = more signal
// return a plain number; no unit text

Before answering, review these 6 worked examples.
[
  {
    "compound": "CCOC(=O)[C@H](CC(C)C)NC(=O)CCC1CC(OC(=O)NCCc2ccc(F)cc2)CC2(CCCC(COC(=O)NCC3CCCCC3)O2)O1 (stereo partly drawn)",
    "endpointResult": -0.227
  },
  {
    "compound": "CCOC(=O)NN=C1C[C@@H](O)[C@@H](O)[C@@H]2[C@@H]3C(=O)N(C(C)(C)C)C(=O)[C@@H]3CC[C@H]12",
    "endpointResult": 0.0171
  },
  {
    "compound": "CON=C[C@@H](NS(=O)(=O)c1ccc(C)cc1)[C@H](C)C=CCC(=O)OC",
    "endpointResult": -0.26
  },
  {
    "compound": "COC(=O)[C@@H]1CC[C@H](C)[C@@H](c2ccc(C)cc2)N1C(=O)c1ccc(C=NO[C@H](C)c2cn([C@H](CO)Cc3ccccc3)nn2)cc1",
    "endpointResult": 0.178
  },
  {
    "compound": "CCOC(=O)[C@H](Cc1ccccc1)NC(=O)CCC1CC(OC(=O)NCc2cccc3ccccc23)CC2(CCCC(COC(=O)NCc3ccccc3)O2)O1 (stereo partly drawn)",
    "endpointResult": -0.208
  },
  {
    "compound": "COC(=O)CC=C[C@@H](C)[C@H](OCc1cccc(-c2ccccc2)c1)C1CCCCC1",
    "endpointResult": -0.416
  }
]

Any idea what composite z-score was measured for `COC(=O)[C@@H]1CC[C@H](C)[C@@H](c2ccc(C)cc2)N1C(=O)c1ccc(C=NO[C@@H]2O[C@H](COC(C)=O)[C@@H](OC(C)=O)[C@H](OC(C)=O)[C@H]2OC(C)=O)cc1` ?
-0.254

# composite z-score lookup, item `CCOC(=O)NN=C1C[C@@H](O)[C@@H](O)[C@@H]2[C@@H]3C(=O)N(Cc4ccccc4)C(=O)[C@@H]3CC[C@H]12`
-0.259

Look at this compound and give its reported composite z-score. CCOC(=O)[C@H](CC(C)C)NC(=O)CCC1CC(OC(=O)NCc2cccc3ccccc23)CC2(CCCC(COC(=O)NCc3cccc(C(F)(F)F)c3)O2)O1 (stereo partly drawn)
-0.167
